System: WNK4
test.context: concentration: 1 μM, replicates: in singlicate; n = 1;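 also: KINOMEscan kinase panel screen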
result.type: %Inh (%)
Report only the number, with the unit % understood.

Please fill in: %Inh reported for Cc1c(Cn2c3ccccc3n3c(=O)cc(N4CCOCC4)nc23)cccc1C(F)(F)F = 0

GET /value?item= COc1ccc(Nc2nccc(NCCNC(=O)Nc3cc(C)ccc3C)n2)cc1 &field=%Inh returns 0

Record summary for CSc1ccc(-c2nc3n(c2-c2ccncc2)CCC3)cc1 : reported %Inh = 3

Given item c1ccc(-c2ccnc3[nH]ccc23)cc1 , the value recorded as its %Inh is 37

Field %Inh (entry Cc1ccccc1Cn1ccn2c(=O)cc(N3CCOCC3)nc12 ) reads 0

For O=C(Nc1n[nH]c2nc(-c3ccco3)c(Br)cc12)C1CCN(Cc2ccccc2)C1.O=C(O)[C@H](O)[C@@H](O)C(=O)O (stereo not drawn) the molecule record lists %Inh as 2

Looking up CNc1cc(-c2ccc3c(N)n[nH]c3c2)nc(N)n1 , I found its %Inh recorded as 88

%Inh recorded for this molecule, COC(=O)C(NC(=O)NC1CCN(c2ccnc(Nc3ccc(F)cc3)n2)C1)c1ccccc1 (stereo not drawn) , is 25

The reported value for CCCCc1nn2ncccc2c1-c1ccnc(NC2CC2)n1 in terms of %Inh is 14

* * *

System: IKK-epsilon
Construct: gene IKBKE
test.context: concentration: 1 μM, replicates: in singlicate; n = 1
result.type: %Inh (%)
Answer format: numeric, % implied, no suffix.

So the reported %Inh for COc1cccc(C2=C(Nc3cc(Cl)c(O)c(Cl)c3)C(=O)NC2=O)c1 , on IKK-epsilon, turned out to be 0

Simply: O=C(Nc1n[nH]c2nc(-c3cccs3)c(Br)cc12)C1CCCC1 , IKK-epsilon, %Inh = 4

%Inh for IKK-epsilon with input Fc1ccc(-c2nc[nH]c2-c2ccncc2)cc1 equals 0

Reported %Inh (IKK-epsilon) for entry COc1cccc(CNC(=O)NC2CCN(c3ccnc(Nc4ccc(F)cc4)n3)C2)c1 (stereo not drawn) is 0

Recorded %Inh for O=C(Nc1n[nH]c2cc(-c3ccsc3)ccc12)C1CC1 on IKK-epsilon was 0

Case Cc1ccccc1Cn1ccn2c(=O)cc(N3CCOCC3)nc12 , IKK-epsilon, %Inh recorded as 0

The observed %Inh for Cc1ccc(NC(=O)c2ccc(Cl)cc2)cc1-c1ccc(C(=O)Nc2ccncc2)cc1 when tested with IKK-epsilon stands at 15

Log: IKK-epsilon, compound COC(=O)C(Cc1ccccc1)NC(=O)NC1CCN(c2ccnc(Nc3ccc(F)cc3)n2)C1 (stereo not drawn) , %Inh = 34

COc1nccc(-c2c(-c3ccc(F)cc3)ncn2CCCN2CCOCC2)n1 on IKK-epsilon gives %Inh = 8

* * *

System: EPHA8
test.context: concentration: 1 μM, replicates: in singlicate; n = 1
The label fulfilled is reserved for %Inh strictly under 10%; not fulfilled covers values equal to or above it.

INPUT: Check if %Inh falls below 10% for Fc1ccc(-c2nc3n(c2-c2ccncc2)CCS3)cc1 [GI98581] .
OUTPUT: not fulfilled

INPUT: %Inh under 10%? Item: O=C1NC(=O)C(c2ccc(Cl)cc2)=C1Nc1ccc(O)cc1 [SB-340867]
OUTPUT: fulfilled

INPUT: Lab note: confirm whether the reported %Inh for this molecule is below 10%, equality not counting. molecule: COc1ccc(CSc2nnc(-c3ccc4nccn4c3)o2)cc1C(F)(F)F
OUTPUT: not fulfilled

INPUT: Lab log: compare recorded %Inh with 10%; is it strictly lower for Cc1ccccc1Cn1ccn2c(=O)cc(N3CCOCC3)nc12 [GSK2269905] ?
OUTPUT: not fulfilled

INPUT: Hi there! Is %Inh for COc1ccc(Nc2nccc(N3CCC(NC(=O)C(C)c4ccc(Cl)cc4)CC3)n2)cc1 (stereo not drawn) [GSK1379812] below 10%, do you know?
OUTPUT: fulfilled

INPUT: Does the reported %Inh of Nc1nccc(-c2c(-c3ccc(F)cc3)ncn2C2CCN(Cc3ccccc3)CC2)n1 [SB-219980] stay below 10%?
OUTPUT: fulfilled

INPUT: Consider the molecule CNc1nc(-c2ccc3c(N)n[nH]c3c2)cc(N2C[C@@H](C(=O)Nc3ccccc3)CC[C@H]2C)n1 [GSK2298859] . Is its %Inh strictly less than 10%?
OUTPUT: fulfilled

* * *

Tested on: AXL
test.context: concentration: 1 μM, replicates: in singlicate; n = 1
Please respond with reported %Inh for every item in the list.
Provide only the numeric value, understood in %.

For this molecule ( Cc1ccc(NC(=O)Nc2ccccc2F)cc1-c1ccc(C(=O)Nc2ccncc2)cc1 ), measured %Inh is 25

Looking up O=c1cc(N2CCOCC2)nc2n(Cc3cccc(Cl)c3Cl)c3ccccc3n12 , I found its %Inh recorded as 59

So for O=C1NC(=O)C(c2ccc(Cl)cc2)=C1Nc1ccc(O)cc1 , the logged %Inh turned out to be 18

Lab note: COc1ccc(Nc2nccc(N3CCC(NC(=O)c4cc5ccccc5s4)C3)n2)cc1 (stereo not shown) gave %Inh of 7

Entry CCn1c(-c2ccccc2)nc2cnccc21 — recorded %Inh = 10

Kindly note the recorded %Inh for COC(=O)c1cccc(NC(=O)NC2CCN(c3ccnc(Nc4ccc(OC)cc4)n3)C2)c1 (stereo not shown) , which is 0

Reported %Inh of COc1ccc(CSc2nnc(-c3ccc4nccn4c3)o2)cc1C(F)(F)F : 20

Per the records, this molecule ( CN1c2ccc(-c3ccc(C(N)=O)cc3)cc2-c2[nH]ncc2S1(=O)=O ) has %Inh equal to 5

Per the records, this molecule ( Cn1cncc1C(=O)NC1CCN(c2ccnc(Nc3ccc(F)cc3)n2)C1 (stereo not shown) ) has %Inh equal to 0

Reported %Inh of CCn1c(-c2c(N)noc2C)nc2cnccc21 : 0

Entry CNCc1ccc2nc(NC(=O)c3ccc(C(C)(C)C)cc3)cn2c1 — recorded %Inh = 15

response.value for COC(=O)C(NC(=O)NC1CCN(c2ccnc(Nc3ccc(F)cc3)n2)C1)c1ccccc1 (stereo not shown) (field: %Inh) = 0

// recorded %Inh for CC(=O)c1cccc(NC(=O)NC2CCN(c3ccnc(Nc4ccc(F)cc4)n3)C2)c1 (stereo not shown) : 5

Cc1ccccc1-c1cc(-c2c[nH]nc2-c2ccccn2)ccn1 yielded %Inh of 0

For reference, reported %Inh for CC(=O)c1c(C)c2cnc(Nc3ccn(C)n3)nc2n(C2CCCC2)c1=O stands at 0

The molecule identified as COc1ccc(-c2coc3ccc(-c4nnc(C)o4)cc23)cc1 registered its %Inh at 0

According to the records, this molecule Fc1ccc(-c2nc3n(c2-c2ccncc2)CCS3)cc1 displays %Inh of 6

Notebook: Cc1nccc(-c2c(-c3ccc(F)cc3)ncn2CCCN2CCOCC2)n1.Cl , %Inh read as 0

Item: O=c1cc(N2CCOCC2)nc2n(Cc3ccccc3F)ccn12 | %Inh: 0

* * *

Test system: MUSK
test.context: concentration: 1 μM, replicates: in singlicate; n = 1
Would you mind telling me the reported %Inh of each entry?
All answers are understood in %, so give the number only.

Observed %Inh, MUSK, CNC(=O)c1ccc(C)c(-n2c(C)cc(OCc3ccc(F)cc3F)c(Br)c2=O)c1 : 6

With MUSK as the test system, CNc1cc(-c2ccc3c(N)n[nH]c3c2)nc(N)n1 [GSK2224810] showed %Inh of 0

Simply: COc1cccc(C2=C(Nc3cc(Cl)c(O)c(Cl)c3)C(=O)NC2=O)c1 [SB-390767] , MUSK, %Inh = 5

Measured on MUSK, COC(=O)C(Cc1ccccc1)NC(=O)NC1CCN(c2ccnc(Nc3ccc(F)cc3)n2)C1 (centres unmarked) [GSK1379714] has a documented %Inh of 8

For Cc1ccc(-c2nc(Nc3ccncc3)c3ccccc3n2)s1 [GSK189015] on MUSK, measured %Inh was 17

Readout %Inh for COC(=O)C(NC(=O)NC1CCN(c2ccnc(Nc3ccc(F)cc3)n2)C1)c1ccccc1 (centres unmarked) [GSK1379712] , test system MUSK, was 12

Tested system MUSK; %Inh recorded for Nc1ncnc2occ(-c3ccc4c(c3)CCN4C(=O)Cc3cc(F)ccc3F)c12 [GSK2645446] was 3

For CC[C@@H]1CO[C@H](C(=O)Nc2ccccc2)CN1c1cc(-c2ccc3c(N)n[nH]c3c2)nc(NC)n1 [GSK2376236] on MUSK, measured %Inh was 2

* * *

Test system: PIK3CD
test.context: concentration: 1 μM, replicates: in singlicate; n = 1
Would you mind telling me the reported %Inh of each entry?
Hi! Could you send only the number? It should be in %, unit omitted.

response.value for COc1nccc(-c2c(-c3ccc(F)cc3)ncn2CCCN2CCOCC2)n1 (field: %Inh) = 0

Fc1ccc(-c2nc[nH]c2-c2ccncc2)cc1 yielded %Inh of 0

Reported %Inh of O=C(Nc1n[nH]c2nc(-c3cccs3)c(Br)cc12)C1CC1 : 0

Recorded %Inh (compound CS(=O)(=O)CCNCc1nc(-c2ccc3ncnc(Nc4ccc5c(cnn5Cc5ccccc5)c4)c3c2)cs1.Cl.Cl ): 1

Notebook: Fc1ccc(-c2nn3cccc(F)c3c2-c2ccncc2)cc1 , %Inh read as 25

Form: compound = O=C(Nc1n[nH]c2nc(-c3ccco3)c(Br)cc12)C1CCN(Cc2ccccc2)C1.O=C(O)[C@H](O)[C@@H](O)C(=O)O (stereo not drawn) ; %Inh = 0

GET /value?item= COc1ccc(CSc2nnc(-c3ccc4c(c3)CCO4)o2)cc1 &field=%Inh returns 0

Reported %Inh of Cc1nccc(-c2c(-c3ccc(F)cc3)ncn2CCCN2CCOCC2)n1.Cl : 49

%Inh reading for Cc1ccccc1Cn1ccn2c(=O)cc(N3CCOCC3)nc12 : 57

Given item COc1cccc(C2=C(Nc3cc(Cl)c(O)c(Cl)c3)C(=O)NC2=O)c1 , the value recorded as its %Inh is 0

Memo: Cn1cncc1C(=O)NC1CCN(c2ccnc(Nc3ccc(F)cc3)n2)C1 (stereo not drawn) , reported %Inh: 0

// recorded %Inh for CNCc1ccc2nc(NC(=O)c3ccc(C(C)(C)C)cc3)cn2c1 : 22

# %Inh of CNc1nc(-c2ccc3c(N)n[nH]c3c2)cc(N2C[C@@H](C(=O)NC3CCCCC3)OC[C@H]2C)n1 = 0

The reported value for COc1cccc(NC(=O)Nc2ccc(C)c(-c3ccc(C(=O)Nc4ccncc4)cc3)c2)c1 in terms of %Inh is 0

According to the records, this compound Cl.Cl.Cl.N#Cc1ccc(CCNc2nccc(-c3cccc(CN4CCNCC4)c3)n2)cc1 displays %Inh of 0

Given item Cc1ccc(NC(=O)Nc2ccccc2F)cc1-c1ccc(C(=O)Nc2ccncc2)cc1 , the value recorded as its %Inh is 0

Item: COc1ccc(Nc2nccc(N3CCC(NC(=O)c4cc5ccccc5s4)C3)n2)cc1 (stereo not drawn) | %Inh: 0

Summary for this compound, CN1c2ccc(-c3ccc(C(N)=O)cc3)cc2-c2[nH]ncc2S1(=O)=O : %Inh is 0
